# Lookup of reported log2 fold change of degron read counts keyed by entry
- experimental_system: T1, CRBN, Q96SW2;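 note: pooled lentiviral library of zinc finger degron-EGFP fusions in mCherry-positive Jurkat cells, FACS-sorted after compound exposure, with degron abundance counted by next-generation sequencing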
- T1 chain: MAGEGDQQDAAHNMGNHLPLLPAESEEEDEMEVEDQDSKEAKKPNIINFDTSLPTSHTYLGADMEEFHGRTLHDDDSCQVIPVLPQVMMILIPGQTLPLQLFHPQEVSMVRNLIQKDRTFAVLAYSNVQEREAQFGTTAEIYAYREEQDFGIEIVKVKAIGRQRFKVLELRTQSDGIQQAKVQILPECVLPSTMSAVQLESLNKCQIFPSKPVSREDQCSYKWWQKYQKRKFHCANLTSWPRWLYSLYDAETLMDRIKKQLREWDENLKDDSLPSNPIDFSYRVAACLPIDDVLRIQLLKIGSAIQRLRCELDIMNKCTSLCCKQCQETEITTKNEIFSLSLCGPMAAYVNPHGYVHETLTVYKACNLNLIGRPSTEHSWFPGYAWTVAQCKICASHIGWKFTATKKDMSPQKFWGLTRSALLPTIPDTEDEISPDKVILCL
- protocol_notes: log2 fold change of degron read counts, EGFP-low vs EGFP+ sorted cells (limma voom), compound-induced degradation; higher = more compound-induced degradation of the degron-EGFP fusion; degrons are variants of IKZF1/3 zinc finger 2; compound dose not given here
- condition_parameters: Jurkat; 18 h; compound: compound 22 (5-morpholino-thalidomide)
Over roughly 8,300 sequences, “log2 fold change of degron read counts, EGFP-low vs EGFP+ sorted cells (limma voom), compound-induced degradation” has its median near -1.1; the highest 2% begin near 3.2. Many of the other results were omitted from the sample, so the highest values are more common in it than they were.

{"columns": ["polymer_sequence", "log2 fold change of degron read counts"],
 "data": [
  ["FVCPQCGASFTQKGNLLRHIKL [46F_47V_49P_50Q_52G_53A_54S_55F_67L_, Q9UKT9]", 0.559],
  ["LLCEICGFVCTQKGNLLRHIKL [46L_47L_49E_50I_52G_53F_54V_55C_67L_, Q9UKT9]", -1.38],
  ["FFCEQCGAAFTQKGNLLRHIKL [46F_47F_49E_50Q_52G_53A_54A_55F_67L_, Q9UKT9]", 1.01],
  ["LWCEICGFVCTQKGNLLRHIKL [46L_47W_49E_50I_52G_53F_54V_55C_67L_, Q9UKT9]", 3.17],
  ["LSCPICGFSCTQKGNLLRHIKL [46L_47S_49P_50I_52G_53F_54S_55C_67L_, Q9UKT9]", 3.05],
  ["FDCNVCGAYFTQKGNLLRHIKL [46F_47D_49N_50V_52G_53A_54Y_55F_67L_, Q9UKT9]", -2.08],
  ["LSCEICGFVCTQKGNLLRHIKL [46L_47S_49E_50I_52G_53F_54V_55C_67L_, Q9UKT9]", 1.38],
  ["FVCPQCGALFTQKGNLLRHIKL [46F_47V_49P_50Q_52G_53A_54L_55F_67L_, Q9UKT9]", -1.48],
  ["LLCPICGFSCTQKGNLLRHIKL [46L_47L_49P_50I_52G_53F_54S_55C_67L_, Q9UKT9]", 0.88],
  ["FGCPICGRGFTQKGNLLRHIKL [46F_47G_49P_50I_52G_53R_54G_55F_67L_, Q9UKT9]", -0.191],
  ["LACPICGFSCTQKGNLLRHIKL [46L_47A_49P_50I_52G_53F_54S_55C_67L_, Q9UKT9]", 3.18]
]}

The reported measurements were obtained from the supplement of paper PMC12645437.
